As shown below, each of these sequences has a reported total protein half-life in vivo value.
Experiment: total protein half-life in vivo (active degradation + dilution); higher = more stable protein
Conditions: E. coli NCM3722 delta-lon; growth: N-lim chemostat; doubling time 6 h
Please provide the amount together with its unit, number first.

Input: Recorded total protein half-life in vivo of `MNMMRIFYIGLSGVGMMFSSMASGNDAGGLQSPACGVVCDPYICVNSDGISPELTRKYLGEKAAENLQSLQGYDPSEFTFANGVFCDVKEKLCRDDRYFGVDGKRSGKINQTTTKMLFMCRE` , please.
Output: 5.64 h

Input: Recorded total protein half-life in vivo of MDMDLNNRLTEDETLEQAYDIFLELAADNLDPADVLLFNLQFEERGGAELFDPAEDWQEHVDFDLNPDFFAEVVIGLADSEDGEINDVFARILLCREKDHKLCHIIWRE [P0A8L7] , please.
Output: 5.05 h

Input: Recorded total protein half-life in vivo of `MHVFDNNGIELKAECSIGEEDGVYGLILESWGPGDRNKDYNIALDYIIERLVDSGVSQVVVYLASSSVRKHMHSLDERKIHPGEYFTLIGNSPRDIRLKMCGYQAYFSRTGRKEIPSGNRTKRILINVPGIYSDSFWASIIRGELSELSQPTDDESLLNMRVSKLIKKTLSQPEGSRKPVEVERLQKVYVRDPMVKAWILQQSKGICENCGKNAPFYLNDGNPYLEVHHVIPLSSGGADTTDNCVALCPNCHRELHYSKNAKELIEMLYVNINRLQK` , please.
Output: 5.87 h

Input: Recorded total protein half-life in vivo of MLKRVFLSLLVLIGLLLLTVLGLDRWMSWKTAPYIYDELQDLPYRQVGVVLGTAKYYRTGVINQYYRYRIQGAINAYNSGKVNYLLLSGDNALQSYNEPMTMRKDLIAAGVDPSDIVLDYAGFRTLDSIVRTRKVFDTNDFIIITQRFHCERALFIALHMGIQAQCYAVPSPKDMLSVRIREFAARFGALADLYIFKREPRFLGPLVPIPAMHQVPEDAQGYPAVTPEQLLELQKKQGK [P0AFY2] , please.
Output: 5.72 h

Input: Recorded total protein half-life in vivo of `MCGRFAQSQTREDYLALLAEDIERDIPYDPEPIGRYNVAPGTKVLLLSERDEHLHLDPVFWGYAPGWWDKPPLINARVETAATSRMFKPLWQHGRAICFADGWFEWKKEGDKKQPFFIYRADGQPIFMAAIGSTPFERGDEAEGFLIVTAAADQGLVDIHDRRPLVLSPEAAREWMRQEISGKEASEIAASGCVPANQFSWHPVSRAVGNVKNQGAELIQPV` , please.
Output: 4.55 h

Input: Recorded total protein half-life in vivo of `MSDNIRVGLIGYGYASKTFHAPLIAGTPGQELAVISSSDETKVKADWPTVTVVSEPKHLFNDPNIDLIVIPTPNDTHFPLAKAALEAGKHVVVDKPFTVTLSQARELDALAKSLGRVLSVFHNRRWDSDFLTLKGLLAEGVLGEVAYFESHFDRFRPQVRDRWREQGGPGSGIWYDLAPHLLDQAITLFGLPVSMTVDLAQLRPGAQSTDYFHAILSYPQRRVILHGTMLAAAESARYIVHGSRGSYVKYGLDPQEERLKNGERLPQEDWGYDMRDGVLTRVEGEERVEETLLTVPGNYPAYYAAIRDALNGDGENPVPASQAIQVMELIELGIESAKHRATLCLA` , please.
Output: 5.58 h

Input: Recorded total protein half-life in vivo of `MANPTVIKLQDGNVMPQLGLGVWQASNEEVITAIQKALEVGYRSIDTAAAYKNEEGVGKALKNASVNREELFITTKLWNDDHKRPREALLDSLKKLQLDYIDLYLMHWPVPAIDHYVEAWKGMIELQKEGLIKSIGVCNFQIHHLQRLIDETGVTPVINQIELHPLMQQRQLHAWNATHKIQTESWSPLAQGGKGVFDQKVIRDLADKYGKTPAQIVIRWHLDSGLVVIPKSVTPSRIAENFDVWDFRLDKDELGEIAKLDQGKRLGPDPDQFGG` , please.
Output: 5.7 h
